Residues, ends and D or L forms follow the SMILES beside them. *: point of attachment. Boc = CC(C)(C)OC(=O)*; OBn = c1ccc(CO*)cc1
Result type: melting point

Task: Fill in: melting point of COc1ccccc1NC(=O)N1CCc2cc(S(=O)(=O)N3CC(c4ccccc4)NC3=O)ccc21 (stereo unspecified) is ___
Output: 202 to 204 °C

Task: Fill in: melting point of CCCc1nccn1-c1nc(Cl)nc2c1ncn2C1OC(COC(C)=O)C(OC(C)=O)C1OC(C)=O (stereo unspecified) is ___
Output: 126 to 128 °C

Task: Fill in: melting point of COc1ccc(-c2nc3n(c2-c2ccc(OC)cc2)CCS3)cc1 is ___
Output: 155 to 158 °C

Task: Fill in: melting point of CCOC1=NS(=O)C(C(N)=O)=C1Br (stereo unspecified) is ___
Output: 168 to 172 °C

Task: Fill in: melting point of O=C1Nc2cc(Cl)c(Cl)cc2N2CCNC[C@H]12 is ___
Output: 136 to 138 °C

Task: Fill in: melting point of COc1ccc(S(=O)(=O)C(CC(=O)NO)Cc2ccccc2)cc1OC (stereo unspecified) is ___
Output: 77 to 79 °C

Task: Fill in: melting point of O=S1(=O)c2cccc3cccc(c23)N1CCN1CCC(Cc2cnc3ccccc3c2)CC1 is ___
Output: 150 °C

Task: Fill in: melting point of COC1(OC)CCN(c2cc3c(cc2F)c(=O)c(C(=O)O)cn3-c2ccc(F)cc2F)C1 is ___
Output: 228 to 230 °C

Task: Fill in: melting point of CNCC(=O)NCC1Cc2cc(C)c3[nH]c(=O)ccc3c2O1 (stereo unspecified) is ___
Output: 188 to 191 °C

Task: Fill in: melting point of CCOC(=O)c1cnc2c(cnn2-c2ccccc2)c1N(Cc1ccccc1)S(=O)(=O)c1ccc(OC)cc1 is ___
Output: 124 to 126 °C

Task: Fill in: melting point of CC(C)(C)OC(=O)NCC(=O)NCC(=O)OCc1ccccc1 (Boc-Gly-Gly-OBn) is ___
Output: 83 °C

Task: Fill in: melting point of Cc1cc(C)nc(SCC(CS(=O)(=O)c2ccc(-c3ccc(Cl)cc3)cc2)C(=O)O)n1 (stereo unspecified) is ___
Output: 170 to 172 °C

Task: Fill in: melting point of CC(C)(C)OC(=O)COc1ccc(C(=O)O)cc1 is ___
Output: 119 to 121 °C

Task: Fill in: melting point of CC1(C)Oc2ccc(C#N)cc2[C@@H](NC(=O)Nc2cccc(-c3ncno3)c2)[C@@H]1O is ___
Output: 168 to 170 °C

Task: Fill in: melting point of COc1ccc(C(=O)C#CCO)c(OC)c1OC is ___
Output: 82 to 83 °C

Task: Fill in: melting point of Fc1ccc2c(c1)Oc1ccccc1-c1nc(S)[nH]c1-2 is ___
Output: 299 to 300 °C

Task: Fill in: melting point of COC(=O)C1CC(=O)N(c2ccc(C)cc2)C1 (stereo unspecified) is ___
Output: 71 to 74 °C

Task: Fill in: melting point of CCOC(=O)c1cc(NC(C)=O)c(=O)[nH]c1C(=O)OCC is ___
Output: 149 to 151 °C

Task: Fill in: melting point of COC(=O)[C@H](Cc1ccccc1)NC(=O)[C@H](Cc1ccccc1)NC(=O)[C@H](CC(N)=O)NC(=O)OC(C)(C)C is ___
Output: 192 to 194 °C

Task: Fill in: melting point of CCCC1(CCC)c2cc(Br)ccc2-c2cc(OC)c(Br)cc21 is ___
Output: 127 to 132 °C

Task: Fill in: melting point of N#Cc1ccc(CCCCCO)cc1 is ___
Output: 39 to 41 °C

Task: Fill in: melting point of Ic1c[nH]c2ncccc12 is ___
Output: 201 to 204 °C

Task: Fill in: melting point of O=S1(=O)N=C(NCC2CC2)Nc2ccc(Cl)cc21 is ___
Output: 288 to 290 °C

Task: Fill in: melting point of O=C(O)CCCN1C(=O)c2ccc([N+](=O)[O-])cc2C1=O is ___
Output: 176 to 178 °C

Task: Fill in: melting point of CSc1ccc(C(C)C)c(NC(=O)CN2CCN(CCSc3nc4ccccc4o3)CC2)c1C(C)C is ___
Output: 148 to 150 °C

Task: Fill in: melting point of Cn1c(-c2ccc(-n3ccnc3)cc2)cnc1[C@H](Cc1ccccn1)N(C=O)c1cc2ccc(Cl)cc2o1 is ___
Output: 165 to 169 °C

Task: Fill in: melting point of O=c1c2ccccc2sn1SCc1ccccc1 is ___
Output: 111 to 112 °C

Task: Fill in: melting point of CCOC(=O)CON1C(=O)C(=O)N(c2cc(Cl)ccc2C)C1=S is ___
Output: 157 to 159 °C

Task: Fill in: melting point of NC(=O)NN=C1CCCCC1n1nc(-c2c(-c3ccccc3)nn3ccccc23)ccc1=O (stereo unspecified) is ___
Output: 227 to 229 °C

Task: Fill in: melting point of Cc1cccc(-c2n[nH]cc2-c2ccc(F)c(-c3cnn(CCO)c3)c2)n1 is ___
Output: 132 to 135 °C

Task: Fill in: melting point of O=C(CS(=O)(=O)C(c1ccc(Cl)cc1)c1ccc(Cl)cc1)C(F)(F)F is ___
Output: 60 to 62 °C
